meta.source: PubChem BioAssay AID2435

# experimental system: Oxytocin receptor (Homo sapiens) (UniProt P30559)
# Sequence (P30559 whole entry, looked up): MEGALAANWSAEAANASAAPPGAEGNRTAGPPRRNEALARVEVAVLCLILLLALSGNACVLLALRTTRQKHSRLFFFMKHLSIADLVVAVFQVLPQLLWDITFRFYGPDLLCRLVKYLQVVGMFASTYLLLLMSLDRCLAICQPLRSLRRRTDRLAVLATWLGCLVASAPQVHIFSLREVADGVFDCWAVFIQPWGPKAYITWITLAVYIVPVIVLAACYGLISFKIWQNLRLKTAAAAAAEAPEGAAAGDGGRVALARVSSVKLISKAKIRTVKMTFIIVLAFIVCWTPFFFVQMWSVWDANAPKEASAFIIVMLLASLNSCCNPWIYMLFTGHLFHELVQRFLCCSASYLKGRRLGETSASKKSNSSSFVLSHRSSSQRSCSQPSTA
# experiment notes: human OXTR agonists, primary screen, fluorescence, CHO-OTR cells, Fluo-8 calcium (AID 2435);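 also: peak over basal fluorescence ratio from a 100 s FLIPR kinetic read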
# study conditions: Fluo-8 calcium fluorescence, at 3 µM
Out of some 320,000 compounds screened, about 1,000 (0.31%) were called active.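 The calls were made as follows: active = activation above the mean of all tested compounds plus 3 SD, cutoff set per screening run (cut at about 20% in these data); inactive = the rest.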 This is one part of a sample in which actives are shown more often than they occur.
Outcome codes: yes (1) for active, no (0) for inactive

• O=C(c1cc2nc(-c3ccccc3)cc(-c3ccccc3)n2n1)N1CCC2(CC1)OCCO2 = no (0)
• O=C(Cc1ccc(Cl)cc1)NCCN1CCN(C(=O)Cc2ccc(Cl)cc2)CC1 = no (0)
• CC(=O)NC(=O)NC(C)Cc1ccccc1 (centres undefined) = no (0)
• CC(Cc1ccccc1)NCCC(c1ccccc1)c1ccccc1 (centres undefined) = yes (1)
